B1: TPR 5TU (parent)
chain: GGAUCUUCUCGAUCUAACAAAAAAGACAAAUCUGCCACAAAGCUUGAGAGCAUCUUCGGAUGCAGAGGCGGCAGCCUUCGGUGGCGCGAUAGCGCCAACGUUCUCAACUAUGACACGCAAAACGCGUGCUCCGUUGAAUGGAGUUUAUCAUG

- Variants of: B1
- protocol_notes: polymerase ribozyme fitness, log enrichment relative to wild type (log ratio); higher = more active; in vitro selection for triplet polymerase activity
This sample holds only a part of the variants without activity.
Catalogue of polymerase ribozyme fitness (log ratio) values

>  <mutation_string>
G48C A91U G143C

>  <polymerase ribozyme fitness (log ratio)>
≤ -4.2

$$$$
>  <mutation_string>
C36U C51G C76G G81C A107G G143A

>  <polymerase ribozyme fitness (log ratio)>
≤ -4.2

$$$$
>  <mutation_string>
A20U U33C G71C G92U C96G A119U C125A

>  <polymerase ribozyme fitness (log ratio)>
≤ -4.2

$$$$
>  <mutation_string>
A52G C76A

>  <polymerase ribozyme fitness (log ratio)>
-0.0301

$$$$
>  <mutation_string>
G42A U56A G67U G94A

>  <polymerase ribozyme fitness (log ratio)>
≤ -4.2

$$$$
>  <mutation_string>
U31C G34A U78C G83C U145G

>  <polymerase ribozyme fitness (log ratio)>
≤ -4.2

$$$$
>  <mutation_string>
A26U C118G

>  <polymerase ribozyme fitness (log ratio)>
-2.12

$$$$
>  <mutation_string>
A21U G84U

>  <polymerase ribozyme fitness (log ratio)>
-1.29

$$$$
>  <mutation_string>
A39C A64G C75G C85U G124A

>  <polymerase ribozyme fitness (log ratio)>
≤ -4.2

$$$$
>  <mutation_string>
A16U A22U C38U C85U

>  <polymerase ribozyme fitness (log ratio)>
-2.73

$$$$

Specify reported polymerase ribozyme fitness (log ratio) for the variant shown: C54A C96G A97C G143C
≤ -4.2

Specify reported polymerase ribozyme fitness (log ratio) for the variant shown: C57G C85G
-1.95

Specify reported polymerase ribozyme fitness (log ratio) for the variant shown: A52U U55A U56G A66G C99A C132U
≤ -4.2
